System: HT-29 cells
assayComment: cells
Assay type: cell-based, human
protocolConditions: MTT, 24 hours; read-out: In vivo HT29 Cells (approximate IC50)
*1 amine or outer side, *2 acyl side, *3 side chain or, on linkers, in order; H or OH if unused. Where a SMILES comes first, the peptide text is derived from it. [ ]: non-standard residue; d: D form. GlyΨ(Thz) = O=C(c1csc(CN[*:1])n1)[*:2]; X3 = O=C(c1coc(CN[*:1])n1)[*:2]
property: IC50

Some compounds with known IC50 results, for comparison:
compound	property	obsValue
CC(C)(C)OC(=O)NCc1nc(C(=O)O)cs1 [Peptide 5]	IC50	~15 µM
C[C@H](NC(=O)CNC(=O)CNC(=O)c1csc(CNC(=O)[C@H](C)NC(=O)CNC(=O)[C@@H](N)CCC(N)=O)n1)C(=O)O [Peptide 5] (H-QGA[GlyΨ(Thz)]GGA-OH)	IC50	~15 µM

Next compound, IC50 to be filled in.
Q) Given C[C@H](NC(=O)CNC(=O)CNC(=O)c1coc(CNC(=O)[C@H](C)NC(=O)CNC(=O)[C@@H](N)CCC(N)=O)n1)C(=O)O [Peptide 4] (H-QGA[X3]GGA-OH) , respond with its IC50.
A) > 75 µM

###

system: Human topoisomerase IIα (Homo sapiens)
assayComment: Human Topoisomerase IIα decatenation assay
Type: biochemical
Design: purchased TopoGEN Inc. (Port Orange, Fla., USA)
protocolConditions: read-out: Topo IIα Human, D (decatenation reaction) IC50
Method: Human Topoisomerase IIα-mediated relaxation assays and decatenation assays were performed as per the manufacturer's instructions in a total of 20 μL. Relaxation assays contained Topoisomerase IIα (4.3 nM), 50 mM Tris.HCl pH 8,120 mM KCl, 10 mM MgCl2, 0.5 mM DTT, 0.5 mM ATP, 4.6 nM of supercoiled pBR322 DNA, and inhibitor where appropriate. […] All in vitro reactions were incubated at 37° C. for 30 minutes. […] The gels were visualised using UV light and were documented and analysed using Syngene software.
pIC50: −log10 of the molar value.
property: pIC50

Q) Determine reported pIC50 for CC(C)(C)OC(=O)NCc1nc(C(=O)O)co1 ; test system: Human topoisomerase IIα (Homo sapiens).
A) < 3.60

###

Quick reference for pIC50 among some compounds
system: E. coli Topoisomerase IV (Escherichia coli, UniProt P0AFI2+P20083)
Sequence (P20083 whole entry): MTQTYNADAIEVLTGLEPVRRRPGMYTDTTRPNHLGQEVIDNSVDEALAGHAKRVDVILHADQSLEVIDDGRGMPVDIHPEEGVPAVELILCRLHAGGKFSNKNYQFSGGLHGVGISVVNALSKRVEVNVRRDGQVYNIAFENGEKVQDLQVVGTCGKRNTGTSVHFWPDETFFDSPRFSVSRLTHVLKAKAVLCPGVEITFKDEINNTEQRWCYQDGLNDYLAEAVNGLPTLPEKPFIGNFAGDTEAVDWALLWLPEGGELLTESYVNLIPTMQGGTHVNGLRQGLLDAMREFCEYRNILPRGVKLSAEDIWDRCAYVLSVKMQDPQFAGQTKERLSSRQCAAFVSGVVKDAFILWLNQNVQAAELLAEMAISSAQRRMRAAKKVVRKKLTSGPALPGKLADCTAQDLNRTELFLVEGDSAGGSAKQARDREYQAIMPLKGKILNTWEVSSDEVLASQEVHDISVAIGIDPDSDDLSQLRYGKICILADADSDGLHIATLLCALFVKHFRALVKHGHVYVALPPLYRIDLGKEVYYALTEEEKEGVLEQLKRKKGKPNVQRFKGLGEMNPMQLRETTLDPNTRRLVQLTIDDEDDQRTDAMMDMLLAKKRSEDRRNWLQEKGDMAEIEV
Sequence (P0AFI2 whole entry): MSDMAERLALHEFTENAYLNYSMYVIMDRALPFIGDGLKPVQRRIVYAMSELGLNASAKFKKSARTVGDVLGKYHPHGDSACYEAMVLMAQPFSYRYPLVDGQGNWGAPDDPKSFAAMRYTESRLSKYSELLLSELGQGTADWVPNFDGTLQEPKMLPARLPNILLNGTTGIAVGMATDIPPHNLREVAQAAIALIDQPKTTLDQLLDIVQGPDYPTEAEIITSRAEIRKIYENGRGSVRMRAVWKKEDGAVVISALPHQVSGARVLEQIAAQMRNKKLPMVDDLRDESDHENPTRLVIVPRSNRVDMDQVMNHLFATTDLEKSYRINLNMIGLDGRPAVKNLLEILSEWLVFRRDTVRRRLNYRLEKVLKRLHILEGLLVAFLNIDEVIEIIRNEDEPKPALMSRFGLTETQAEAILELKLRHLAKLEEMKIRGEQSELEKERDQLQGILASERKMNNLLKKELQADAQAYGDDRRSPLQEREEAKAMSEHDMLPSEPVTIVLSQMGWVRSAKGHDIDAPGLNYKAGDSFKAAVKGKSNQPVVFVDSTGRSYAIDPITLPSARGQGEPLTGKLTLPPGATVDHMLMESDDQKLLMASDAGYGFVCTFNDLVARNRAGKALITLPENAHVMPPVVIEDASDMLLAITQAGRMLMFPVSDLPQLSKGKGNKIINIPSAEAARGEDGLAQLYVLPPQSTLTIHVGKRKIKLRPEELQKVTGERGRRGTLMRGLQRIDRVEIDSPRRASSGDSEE
assayComment: biochemical
Type: biochemical
Design: purchased John Innes Enterprises (Norwich, UK)
*1 amine or outer side, *2 acyl side, *3 side chain or, on linkers, in order; H or OH if unused. Where a SMILES comes first, the peptide text is derived from it. [ ]: non-standard residue; d: D form. X3 = O=C(c1coc(CN[*:1])n1)[*:2]
When answering, recall that pIC50 equals minus log10 of the concentration in mol/L, and write that number alone.

> print(dat)
                                   compound  property  obsvalue
1  CC(C)(C)OC(=O)NCc1nc(C(=O)O)cs1 [Peptide 5]     pIC50      4.70

Below: the item to evaluate.
Q) For the compound C[C@H](NC(=O)CNC(=O)CNC(=O)c1coc(CNC(=O)[C@H](C)NC(=O)CNC(=O)[C@@H](N)CCC(N)=O)n1)C(=O)O [Peptide 4] (H-QGA[X3]GGA-OH) , give its measured pIC50 value.
A) 3.76

###

system: E. coli Topoisomerase IV (Escherichia coli, UniProt P0AFI2+P20083)
assayComment: biochemical
Type: biochemical
Design: purchased John Innes Enterprises (Norwich, UK)
protocolConditions: read-out: Topo IV, D (decatenation reaction) IC50
property: pIC50
Scale: negative log10 of molar concentration, which is what pIC50 denotes.

Q) Return pIC50 for the following compound: CC(C)(C)OC(=O)NCc1nc(C(=O)O)co1
A) 3.70

###

system: Human topoisomerase IIα (Homo sapiens, UniProt P11388)
Sequence (P11388 whole entry): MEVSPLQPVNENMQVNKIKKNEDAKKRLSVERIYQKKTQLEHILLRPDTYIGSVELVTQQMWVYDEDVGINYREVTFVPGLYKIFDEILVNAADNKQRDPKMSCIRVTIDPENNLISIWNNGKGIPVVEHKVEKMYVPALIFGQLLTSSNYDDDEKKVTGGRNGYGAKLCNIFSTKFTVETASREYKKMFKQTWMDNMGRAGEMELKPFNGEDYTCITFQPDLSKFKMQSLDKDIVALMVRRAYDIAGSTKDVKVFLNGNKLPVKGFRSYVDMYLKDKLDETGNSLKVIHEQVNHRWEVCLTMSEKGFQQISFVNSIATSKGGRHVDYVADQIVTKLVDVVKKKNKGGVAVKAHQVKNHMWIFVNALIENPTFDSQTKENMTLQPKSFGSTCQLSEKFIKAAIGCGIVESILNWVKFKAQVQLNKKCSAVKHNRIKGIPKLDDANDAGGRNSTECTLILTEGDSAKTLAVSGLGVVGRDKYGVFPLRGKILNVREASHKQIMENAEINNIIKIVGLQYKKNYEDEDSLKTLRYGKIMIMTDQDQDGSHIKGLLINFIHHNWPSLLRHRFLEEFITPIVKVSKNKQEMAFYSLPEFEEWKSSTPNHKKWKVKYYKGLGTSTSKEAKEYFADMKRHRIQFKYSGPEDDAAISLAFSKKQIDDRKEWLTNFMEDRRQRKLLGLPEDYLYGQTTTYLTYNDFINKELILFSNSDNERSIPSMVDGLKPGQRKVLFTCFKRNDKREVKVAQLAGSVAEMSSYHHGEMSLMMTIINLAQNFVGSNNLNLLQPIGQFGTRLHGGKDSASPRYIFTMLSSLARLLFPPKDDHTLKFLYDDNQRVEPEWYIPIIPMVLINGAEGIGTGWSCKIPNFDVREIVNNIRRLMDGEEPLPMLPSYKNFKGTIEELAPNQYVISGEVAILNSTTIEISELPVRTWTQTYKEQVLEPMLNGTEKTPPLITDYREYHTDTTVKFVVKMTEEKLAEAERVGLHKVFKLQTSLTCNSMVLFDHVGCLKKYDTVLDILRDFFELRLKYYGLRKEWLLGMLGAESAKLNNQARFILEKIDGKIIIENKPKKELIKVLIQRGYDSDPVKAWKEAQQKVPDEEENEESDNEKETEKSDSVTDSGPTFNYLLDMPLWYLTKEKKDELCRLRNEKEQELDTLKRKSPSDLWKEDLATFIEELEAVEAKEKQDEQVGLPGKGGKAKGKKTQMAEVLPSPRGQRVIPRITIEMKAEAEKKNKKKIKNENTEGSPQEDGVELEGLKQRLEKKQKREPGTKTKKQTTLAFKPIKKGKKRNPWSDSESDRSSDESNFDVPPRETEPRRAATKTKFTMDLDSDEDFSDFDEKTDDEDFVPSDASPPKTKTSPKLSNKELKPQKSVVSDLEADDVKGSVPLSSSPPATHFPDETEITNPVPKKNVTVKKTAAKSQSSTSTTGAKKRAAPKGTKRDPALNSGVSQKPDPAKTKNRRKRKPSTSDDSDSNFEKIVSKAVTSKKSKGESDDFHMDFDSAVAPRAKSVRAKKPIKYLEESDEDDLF
assayComment: Human Topoisomerase IIα-mediated relaxation assay
Format: biochemical
Set-up: purchased TopoGEN Inc. (Port Orange, Fla., USA)
protocolConditions: read-out: Topo IIα Human, R (relaxation reaction) IC50
Protocol: Human Topoisomerase IIα-mediated relaxation assays and decatenation assays were performed as per the manufacturer's instructions in a total of 20 μL. Relaxation assays contained Topoisomerase IIα (4.3 nM), 50 mM Tris.HCl pH 8,120 mM KCl, 10 mM MgCl2, 0.5 mM DTT, 0.5 mM ATP, 4.6 nM of supercoiled pBR322 DNA, and inhibitor where appropriate. […] All in vitro reactions were incubated at 37° C. for 30 minutes. […] The gels were visualised using UV light and were documented and analysed using Syngene software.
property: IC50

> print(dat)
                 chemicalstructure  property  obsvalue
1  CC(C)(C)OC(=O)NCc1nc(C(=O)O)co1      IC50  > 250 µM

Here is another compound to look at.
Q) Please supply the value of reported IC50 for the item CC(C)(C)OC(=O)NCc1nc(C(=O)O)cs1
A) < 20 µM

###

The molecules listed here are annotated with their pIC50.
system: Human topoisomerase IIα (Homo sapiens, UniProt P11388)
assayComment: Human Topoisomerase IIα decatenation assay
Assay type: biochemical
Design: purchased TopoGEN Inc. (Port Orange, Fla., USA)
pIC50: −log10 of the molar value. *1 amine or outer side, *2 acyl side, *3 side chain or, on linkers, in order; H or OH if unused. Where a SMILES comes first, the peptide text is derived from it. [ ]: non-standard residue; d: D form. GlyΨ(Thz) = O=C(c1csc(CN[*:1])n1)[*:2]; X3 = O=C(c1coc(CN[*:1])n1)[*:2]

Solved cases (2 shown):
molecule	pIC50
C[C@H](NC(=O)CNC(=O)CNC(=O)c1csc(CNC(=O)[C@H](C)NC(=O)CNC(=O)[C@@H](N)CCC(N)=O)n1)C(=O)O [Peptide 5] (H-QGA[GlyΨ(Thz)]GGA-OH)	> 5.60
C[C@H](NC(=O)CNC(=O)CNC(=O)c1coc(CNC(=O)[C@H](C)NC(=O)CNC(=O)[C@@H](N)CCC(N)=O)n1)C(=O)O [Peptide 4] (H-QGA[X3]GGA-OH)	> 4.30

We next turn to a different molecule, shown below.
Q) Annotate the molecule CC(C)(C)OC(=O)NCc1nc(C(=O)O)cs1 [Peptide 5] with its measured pIC50.
A) > 5.30

###

assayComment: Solubility
protocolConditions: water with 2% DMSO
*1 amine or outer side, *2 acyl side, *3 side chain or, on linkers, in order; H or OH if unused. Where a SMILES comes first, the peptide text is derived from it. [ ]: non-standard residue; d: D form. X1 = O=C(c1ccc(CN[*:1])[nH]1)[*:2]
property: solubility (µM)
Reply with just the number (in µM).

Q) Report solubility for CC(NC(=O)CNC(=O)CNC(=O)c1ccc(CNC(=O)C(C)NC(=O)CNC(=O)C(N)CCC(N)=O)[nH]1)C(=O)O (stereo not shown) [Peptide 1] (H-QGA[X1]GGA-OH; configuration not given here)
A) 1000
